Cited source for all entries: patent US20050250819A1

Tested on: Type III protein secretion of the chimeric SopE‘-’Bla polypeptide (SPI1 type III protein secretion system)
Experiment: Primary assay: Type III protein secretion of the chimeric SopE'-'Bla polypeptide by Salmonella enterica
Assay type: cell-based
Conditions: read-out: SopE IC50(μM)
measured_attribute: IC50 (µM)

O=C(N[C@H](COCc1ccccc1)C(=O)O)/C(=C\c1ccc(Cl)c(Cl)c1)NC(=O)C1CCN(c2nccc(C(F)(F)F)n2)CC1 = 12.8
O=C(N[C@H](COCc1ccccc1)C(=O)O)/C(=C\c1ccc(C(F)(F)F)cc1)NC(=O)c1cc2ccccc2s1 = 88
O=C(O)[C@H](Cc1ccc(Cl)cc1)NC(=O)N(CCc1ccc(-c2ccccc2)cc1)Cc1ccc(Cl)c(Cl)c1 (stereo in doubt) = 1.1
O=C(NC(COCc1ccccc1)C(=O)O)/C(=C\c1cccc(Oc2ccc(Cl)cc2)c1)NC(=O)c1ccc(C(F)(F)F)cc1 (stereo in doubt) = 7.7
O=C(N[C@@H](CSCc1ccccc1)C(=O)O)C(=Cc1ccc2ccccc2c1)NC(=O)c1ccc(I)cc1 = 28.6
O=C(N/C(=C/c1ccc(-c2ccccc2)cc1)C(=O)N1CCCCC1C(=O)O)c1ccc(C(F)(F)F)cc1 (stereo not drawn) = 60

---

Measured log10 IC50, listed per entry.
Tested on: Type III protein secretion of the chimeric SopE‘-’Bla polypeptide (SPI1 type III protein secretion system)
Assay: Primary assay: Type III protein secretion of the chimeric SopE'-'Bla polypeptide by Salmonella enterica
Assay type: cell-based
Conditions: read-out: SopE IC50(μM)
measured_attribute: log10 IC50 (log10 of the value in µM)

CC(C)(S)C(NC(=O)/C(=C\c1ccc(-c2ccccc2)cc1)NC(=O)c1ccc(C(F)(F)F)cc1)C(=O)O (stereo not shown) = 0.89
O=C(N[C@@H](Cc1ccc(Cl)cc1)C(=O)O)/C(=C\c1ccc(-c2ccccc2)cc1)NC(=O)c1ccc(C(F)(F)F)cc1 = 0.78
O=C(NC1(C(=O)O)CCCCC1)/C(=C\c1ccc(-c2ccccc2)cc1)NC(=O)c1ccc(C(F)(F)F)cc1 = 1.70
O=C(N[C@@H](Cc1ccc(Cl)cc1)C(=O)O)/C(=C\c1cccc(C(F)(F)F)c1)NC(=O)c1ccc(OC(F)(F)F)cc1 = 1.40
O=C(NN(Cc1cccc(Oc2ccccc2)c1)C(=O)N[C@@H](CSCc1ccccc1)C(=O)O)c1ccc(C(F)(F)F)cc1 = 1.18
O=C(N[C@@H](CSCc1ccccc1)C(=O)O)/C(=C\c1ccc(Br)cc1)NC(=O)C1CCN(c2nccc(C(F)(F)F)n2)CC1 = 1.76
O=C(O)[C@H](COCc1ccccc1)NC(=O)N(CCc1ccc(-c2ccccc2)cc1)Cc1ccc(Cl)c(Cl)c1 = 0.32
O=C(N[C@@H](Cc1ccc(Cl)cc1)C(=O)O)/C(=C\c1cccc(C(F)(F)F)c1)NC(=O)C1CCN(c2nccc(C(F)(F)F)n2)CC1 = 1.41
Cc1ccc(/C=C(/NC(=O)c2ccc(-c3ccccc3)cc2)C(=O)NC(C(=O)O)C(C)(C)S)o1 (stereo not shown) = 1.74
CC(C)(S)C(NC(=O)/C(=C\c1cccc(Oc2ccccc2)c1)NC(=O)c1ccc(C(F)(F)F)cc1)C(=O)O (stereo not shown) = 1.20
NC(=O)C[C@@H](NC(=O)/C(=C\c1ccc(-c2ccccc2)cc1)NC(=O)c1ccc(C(F)(F)F)cc1)C(=O)O = 2.00
CC(C)(S)C(NC(=O)/C(=C\c1cccc(C(F)(F)F)c1)NC(=O)c1ccc(-c2ccccc2)cc1)C(=O)O (stereo not shown) = 1.15
Cn1cc(C(=O)N/C(=C/c2cccc(C(F)(F)F)c2)C(=O)N[C@H](COCc2ccccc2)C(=O)O)c2ccccc21 = 1.94
